target: G-protein coupled receptor 6 (Homo sapiens, UniProt P46095); assay: Modulation activity at GPR6 receptor (unknown origin) expressed in CHO-K1 cells assessed as inhibition of constitutive cAMP activity incubated for 45 mins by Perkin Elmer Lance HTRF Ultrac-AMP assay
Sequence (P46095 whole entry): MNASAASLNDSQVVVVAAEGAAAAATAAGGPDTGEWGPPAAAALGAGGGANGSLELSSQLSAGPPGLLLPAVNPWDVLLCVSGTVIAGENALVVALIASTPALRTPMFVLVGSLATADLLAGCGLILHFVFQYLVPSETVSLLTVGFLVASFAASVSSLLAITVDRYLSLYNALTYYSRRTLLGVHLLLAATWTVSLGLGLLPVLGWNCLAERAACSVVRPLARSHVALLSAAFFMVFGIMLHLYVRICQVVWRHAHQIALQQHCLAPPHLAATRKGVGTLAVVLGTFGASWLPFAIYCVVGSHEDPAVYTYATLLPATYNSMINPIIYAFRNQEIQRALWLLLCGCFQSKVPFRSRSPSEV
Recorded pIC50, one value per entry.
Keep in mind that pIC50 stands for -log10 of concentration in molar terms.

Recorded results for 8 compounds are shown here.
[[record]]
mol_smiles = "Cc1nnc(C)c2nc(N3CCC(Oc4ccc(F)cc4F)CC3)c(NC(C)C)nc12"
value_observed = 7.22

[[record]]
mol_smiles = "Fc1ccc(F)c(CN2CCN(c3nc4cncc(Cl)c4nc3NC3CC3)CC2)c1"
value_observed = 7.21

[[record]]
mol_smiles = "Fc1ccc(CC2CCN(c3nc4cnccc4nc3NC3CC3)CC2)c(F)c1"
value_observed = 7.72

[[record]]
mol_smiles = "CC(C)Nc1nc2ccc(C#N)cc2nc1N1CCC([C@H](F)c2cc(F)ccc2F)CC1"
value_observed = 7.09

[[record]]
mol_smiles = "COc1ccc(C(=O)C2CCN(c3nc4c(C#N)nccc4nc3NC3CC3)CC2)c(F)c1"
value_observed = 7.37

[[record]]
mol_smiles = "COc1ccc(OC2CCN(c3nc4cnncc4nc3NC3CC3)CC2)c(F)c1"
value_observed = 7.44

[[record]]
mol_smiles = "CN1CCN(C(=O)c2cc3nc(NC4CC4)c(N4CCC(C(=O)c5cc(C#N)ccc5F)CC4)nc3cn2)CC1"
value_observed = 7.27

[[record]]
mol_smiles = "CC(C)Nc1nc2ccc(C#N)cc2nc1N1CCN(Cc2cc(Cl)ccc2Cl)CC1"
value_observed = 6.51


Enquiry: Name the recorded pIC50 of the item Cc1nncc2nc(N3CCC(Oc4ccc(F)cc4F)CC3)c(NC(C)C)nc12 in your answer.
Return: 7.51

Enquiry: Give pIC50 for CC(C)Nc1nc2ccccc2nc1N1CCC(Oc2ccc(Cl)cc2F)CC1
Return: 7.29

Where these numbers come from: ChEMBL document CHEMBL4421718
